# Assay System: Glucose-dependent insulinotropic receptor (Mus musculus)
# Sequence (Q7TQP3 whole entry): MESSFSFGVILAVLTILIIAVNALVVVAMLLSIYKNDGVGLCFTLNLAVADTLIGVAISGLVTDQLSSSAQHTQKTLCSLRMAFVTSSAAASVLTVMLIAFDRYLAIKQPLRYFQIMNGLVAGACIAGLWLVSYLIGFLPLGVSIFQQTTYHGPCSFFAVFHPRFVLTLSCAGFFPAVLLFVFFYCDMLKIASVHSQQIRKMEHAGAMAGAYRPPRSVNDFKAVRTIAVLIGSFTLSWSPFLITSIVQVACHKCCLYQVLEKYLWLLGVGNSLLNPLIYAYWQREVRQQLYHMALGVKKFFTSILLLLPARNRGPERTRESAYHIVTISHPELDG
# Test Protocol: Agonist activity at mouse GPR119 expressed in CHO cells co-expressing Galpha15 assessed as increase of intracellular cAMP accumulation after 60 mins by HTRF assay
Measurement Kind: EC50 (nM)
Write it as a number; the unit nM goes unstated.

Consider the following illustrative entries.
CC(C)(C)OC(=O)N1CCC(C2CCN(c3ccc(C(N)=O)cc3)CC2)CC1 = 165
Clc1cnc(N2CCC([C@H]3C[C@H]3CCOc3ccc(-n4ccnn4)cn3)CC2)nc1 = 4
O=C(NC1CC1)c1ccc(OCC2CC2C2CCN(c3ncc(Cl)cn3)CC2)cc1F (racemic; 51) = 9
O=C(NC1CC1)c1ccc(OCC2CC2CC2CCN(c3ncc(Cl)cn3)CC2)cc1F (racemic; 57) = 18
O=C(NC1CC1)c1ccc(OCCC2CC2C2CCN(c3ncc(Cl)cn3)CC2)cc1F (single isomer, unassigned; (+)) = 5

Sample "CC(C)(C)OC(=O)N1CCC(C2CCN(c3cnccn3)CC2)CC1" ; EC50 observed: 142

// EC50 lookup, compound = "CS(=O)(=O)c1ccc(N2CCC(C3CCN(c4cnccn4)CC3)CC2)cc1" , result: 239

// EC50 lookup, compound = "CS(=O)(=O)c1ccc(N2CCC(C3CCN(c4ncccn4)CC3)CC2)cc1" , result: 887

// sample "CS(=O)(=O)c1ccc(N2CCC(C3CCN(c4ccc(C(F)(F)F)cn4)CC3)CC2)cc1" , its EC50 was 8

###

# Assay System: Voltage-gated inwardly rectifying potassium channel KCNH2 (Homo sapiens)
# Sequence (Q12809 whole entry): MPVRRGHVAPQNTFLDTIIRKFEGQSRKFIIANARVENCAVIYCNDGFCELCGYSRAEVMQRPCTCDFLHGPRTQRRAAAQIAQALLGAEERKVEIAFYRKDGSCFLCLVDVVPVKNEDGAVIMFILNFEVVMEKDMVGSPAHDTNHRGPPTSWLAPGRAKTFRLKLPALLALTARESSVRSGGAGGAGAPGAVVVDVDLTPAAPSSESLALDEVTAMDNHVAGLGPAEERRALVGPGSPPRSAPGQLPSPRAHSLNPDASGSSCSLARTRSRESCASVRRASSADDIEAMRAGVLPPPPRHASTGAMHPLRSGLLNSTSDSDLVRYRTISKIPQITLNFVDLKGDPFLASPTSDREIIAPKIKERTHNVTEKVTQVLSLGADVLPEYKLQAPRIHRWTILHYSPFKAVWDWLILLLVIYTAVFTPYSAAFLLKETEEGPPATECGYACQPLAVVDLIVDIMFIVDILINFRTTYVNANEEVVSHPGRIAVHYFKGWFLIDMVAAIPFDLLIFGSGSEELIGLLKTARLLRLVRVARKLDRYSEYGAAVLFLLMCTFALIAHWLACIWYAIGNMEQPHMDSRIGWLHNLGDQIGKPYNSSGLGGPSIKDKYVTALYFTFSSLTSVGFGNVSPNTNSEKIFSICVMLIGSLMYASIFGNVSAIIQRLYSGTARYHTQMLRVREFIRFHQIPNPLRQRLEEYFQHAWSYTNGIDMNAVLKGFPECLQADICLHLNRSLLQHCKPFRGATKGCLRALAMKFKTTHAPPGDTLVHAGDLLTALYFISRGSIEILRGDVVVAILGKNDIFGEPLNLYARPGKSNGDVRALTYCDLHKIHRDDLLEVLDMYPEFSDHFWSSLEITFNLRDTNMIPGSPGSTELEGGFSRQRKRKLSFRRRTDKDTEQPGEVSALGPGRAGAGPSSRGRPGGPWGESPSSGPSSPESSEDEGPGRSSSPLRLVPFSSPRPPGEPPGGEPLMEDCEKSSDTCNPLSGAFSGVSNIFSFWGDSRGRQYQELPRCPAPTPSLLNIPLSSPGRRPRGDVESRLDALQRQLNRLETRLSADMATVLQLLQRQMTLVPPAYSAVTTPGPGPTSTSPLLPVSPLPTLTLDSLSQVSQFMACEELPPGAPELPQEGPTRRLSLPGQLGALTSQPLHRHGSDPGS
# Test Protocol: Inhibition of human ERG
Measurement Kind: IC50

Some entries whose results are on file:
O=C(NC1CC1)c1ccc(OCC2CC2CC2CCN(c3ncc(Cl)cn3)CC2)cc1F (racemic; 56) = 1200 nM
Cc1cnc(N2CCC(C3CCN(c4cc(C#N)nc(C)n4)CC3)CC2)cn1 = 5400 nM
O=C(NC1CC1)c1ccc(OCCC2CC2C2CCN(c3ncc(Cl)cn3)CC2)cc1F (racemic) = > 30000 nM

Kindly consider the entry below.
Quick note, IC50 for O=C(NC1CC1)c1ccc(OCCC2CC2C2CCN(c3ncc(Cl)cn3)CC2)cc1F (single isomer, unassigned; (-)) landed at 2600 nM

###

# Assay System: Glucose-dependent insulinotropic receptor (Homo sapiens)
# Sequence (Q8TDV5 whole entry): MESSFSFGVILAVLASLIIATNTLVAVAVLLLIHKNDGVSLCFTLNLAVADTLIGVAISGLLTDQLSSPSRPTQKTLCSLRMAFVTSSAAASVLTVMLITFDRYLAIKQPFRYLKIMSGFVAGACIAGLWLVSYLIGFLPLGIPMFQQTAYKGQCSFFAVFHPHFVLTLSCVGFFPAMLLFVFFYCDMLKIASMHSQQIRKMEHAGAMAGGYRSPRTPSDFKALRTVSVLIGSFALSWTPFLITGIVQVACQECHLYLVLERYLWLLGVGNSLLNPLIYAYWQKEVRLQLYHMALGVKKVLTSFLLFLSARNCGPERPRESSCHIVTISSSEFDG
# Test Protocol: Agonist activity at human GPR119 expressed in CHO cells co-expressing Galpha15 assessed as increase of intracellular cAMP accumulation after 60 mins by HTRF assay
# Type: functional, cell-based
Quick reference: pEC50 of the listed items.
Field pEC50 (float): negative decimal logarithm of the concentration in molar.

Memo: "CC(C)(C)OC(=O)N1CCC(C2CCN(c3ccnc(C#N)n3)CC2)CC1" , reported pEC50: 8.22

Entry "Cc1cc(N2CCC(C3CCN(c4ncc(Cl)cn4)CC3)CC2)nc(C#N)n1" , pEC50 reported as 8.70

Just so you know, measured pEC50 for "CS(=O)(=O)c1ccc(N2CCC(C3CCN(c4ccc(C#N)cn4)CC3)CC2)cc1" came out at 7.21

Value of pEC50 reported for the compound "Cc1nc(C#N)cc(N2CCC(C3CCN(C(=O)OC(C)(C)C)CC3)CC2)n1" is 8.70

Lab book: pEC50 of "CC(C)(C)OC(=O)N1CCC(C2CCN(c3ccc(S(C)(=O)=O)cc3)CC2)CC1" noted as 7.66

The value of pEC50 measured for the compound O=C(NC1CC1)c1ccc(OCC2CC2C2CCN(c3ncc(Cl)cn3)CC2)cc1F (racemic; 52) turned out to be 7.70

Item: "CS(=O)(=O)c1ccc(N2CCC(C3CCN(c4cnccn4)CC3)CC2)cc1" | pEC50: 6.70

get_value(item= "CC(C)(C)OC(=O)N1CCC(C2CCN(c3ccncn3)CC2)CC1" , readout=pEC50) returns 6.94

compound "CC(C)(C)OC(=O)N1CCC(C2CCN(c3ccc(C(N)=O)cc3)CC2)CC1" , pEC50 observed: 7.12

pEC50 measured on "CC(=O)c1ccc(N2CCC(C3CCN(C(=O)OC(C)(C)C)CC3)CC2)cc1" = 7.60
